These measurements were taken from ChEMBL document CHEMBL4622892.

Values of IC50 reported for Mushroom tyrosinase (Agaricus bisporus, UniProt O42713+Q00024+C7FF04+C7FF05) appear below.

Consider the following illustrative entries.
C#CCOC[C@H]1OC(OCC#C)[C@H](OCc2ccccc2)[C@@H](OCc2ccccc2)[C@@H]1OCc1ccccc1 (some centres not stated)
> 500 µM
C#CCO[C@@H]1O[C@H](COCc2ccccc2)[C@@H](OCc2ccccc2)[C@H](OCc2ccccc2)[C@H]1OCc1ccccc1
94.7 µM
C#CCO[C@H]1O[C@@H]2CO[C@@H](c3ccccc3)O[C@H]2[C@H](OCc2ccccc2)[C@H]1OCc1ccccc1
> 500 µM
C#CCOC[C@H]1OC(OCC#CC)[C@H](OCc2ccccc2)[C@@H](OCc2ccccc2)[C@@H]1OCc1ccccc1 (some centres not stated)
> 500 µM
CC#CCOC[C@H]1OC(OCc2ccccc2)[C@H](OCc2ccccc2)[C@@H](OCc2ccccc2)[C@@H]1OCc1ccccc1 (some centres not stated)
> 500 µM
C#CCCCOC1O[C@H](CO)[C@@H](OCc2ccccc2)[C@H](OCc2ccccc2)[C@H]1OCc1ccccc1 (some centres not stated)
> 500 µM

Next molecule, IC50 to be filled in.
Task item: Identify IC50 associated with the molecule CO[C@H]1O[C@H](COCc2ccccc2)[C@@H](OCc2ccccc2)[C@H](OCc2ccccc2)[C@H]1OCc1ccccc1
Reply: 191 µM

---

Values of IC50 reported for Mushroom tyrosinase (Agaricus bisporus, UniProt O42713+Q00024+C7FF04+C7FF05) appear below.

C#CCCOC1O[C@@H]2CO[C@@H](c3ccccc3)O[C@H]2[C@H](O)[C@H]1O (some centres undefined)
207 µM
C#CCO[C@H]1O[C@H](COCc2ccccc2)[C@@H](OCc2ccccc2)[C@H](OCc2ccccc2)[C@H]1OCc1ccccc1
> 500 µM
CC#CCOC1O[C@H](CO)[C@@H](OCc2ccccc2)[C@H](OCc2ccccc2)[C@H]1OCc1ccccc1 (some centres undefined)
80.4 µM
C#CCCO[C@H]1O[C@@H]2CO[C@@H](c3ccccc3)O[C@H]2[C@H](OCc2ccccc2)[C@H]1OCc1ccccc1
> 500 µM
CC#CCO[C@@H]1O[C@H](COCc2ccccc2)[C@@H](OCc2ccccc2)[C@H](OCc2ccccc2)[C@H]1OCc1ccccc1
> 500 µM
COC[C@H]1O[C@H](OC)[C@H](OCc2ccccc2)[C@@H](OCc2ccccc2)[C@@H]1OCc1ccccc1
494 µM
C#CCOC1O[C@H](COC(C)=O)[C@@H](OCc2ccccc2)[C@H](OCc2ccccc2)[C@H]1OCc1ccccc1 (some centres undefined)
> 500 µM
C#CCCO[C@@H]1O[C@@H]2CO[C@@H](c3ccccc3)O[C@H]2[C@H](OCc2ccccc2)[C@H]1OCc1ccccc1
> 500 µM

Task item: Identify IC50 associated with the compound c1ccc(COC[C@H]2OC(OCc3ccccc3)[C@H](OCc3ccccc3)[C@@H](OCc3ccccc3)[C@@H]2OCc2ccccc2)cc1 (some centres undefined)
Reply: > 500 µM

---

Molecular target: Mushroom tyrosinase (Agaricus bisporus, UniProt O42713+Q00024+C7FF04+C7FF05)
Criterion: IC50 strictly less than 200 µM. Met: True. Not met: False.

CO[C@H]1O[C@H](COC(C)=O)[C@@H](OCc2ccccc2)[C@H](OCc2ccccc2)[C@H]1OCc1ccccc1
False
C#CCCOC1O[C@H](COC(C)=O)[C@@H](OCc2ccccc2)[C@H](OCc2ccccc2)[C@H]1OCc1ccccc1 (stereo not given in full)
False
CC#CCOC1O[C@H](COCc2ccccc2)[C@@H](OCc2ccccc2)[C@H](OCc2ccccc2)[C@H]1OCc1ccccc1 (stereo not given in full)
True
C#CCCOC1O[C@@H]2CO[C@@H](c3ccccc3)O[C@H]2[C@H](OCc2ccccc2)[C@H]1OCc1ccccc1 (stereo not given in full)
False
CC#CCO[C@H]1O[C@@H]2CO[C@@H](c3ccccc3)O[C@H]2[C@H](OCc2ccccc2)[C@H]1OCc1ccccc1
False
C#CCCO[C@@H]1O[C@@H]2CO[C@@H](c3ccccc3)O[C@H]2[C@H](OCc2ccccc2)[C@H]1OCc1ccccc1
False
COC[C@H]1OC(OCc2ccccc2)[C@H](OCc2ccccc2)[C@@H](OCc2ccccc2)[C@@H]1OCc1ccccc1 (stereo not given in full)
False
CC#CCO[C@@H]1O[C@H](COCc2ccccc2)[C@@H](OCc2ccccc2)[C@H](OCc2ccccc2)[C@H]1OCc1ccccc1
True

Task item: Consider CC#CCO[C@@H]1O[C@@H]2CO[C@@H](c3ccccc3)O[C@H]2[C@H](OCc2ccccc2)[C@H]1OCc1ccccc1 . Does its IC50 lie strictly below 200 µM?
Reply: False

Task item: Consider c1ccc(COC[C@H]2OC(OCc3ccccc3)[C@H](OCc3ccccc3)[C@@H](OCc3ccccc3)[C@@H]2OCc2ccccc2)cc1 (stereo not given in full) . Does its IC50 lie strictly below 200 µM?
Reply: False

Task item: Consider CC#CCOC1O[C@H](COC)[C@@H](OCc2ccccc2)[C@H](OCc2ccccc2)[C@H]1OCc1ccccc1 (stereo not given in full) . Does its IC50 lie strictly below 200 µM?
Reply: True

Task item: Consider C#CCOC1O[C@H](COCc2ccccc2)[C@@H](OCc2ccccc2)[C@H](OCc2ccccc2)[C@H]1OCc1ccccc1 (stereo not given in full) . Does its IC50 lie strictly below 200 µM?
Reply: True

Task item: Consider CO[C@H]1O[C@H](CO)[C@@H](OCc2ccccc2)[C@H](OCc2ccccc2)[C@H]1OCc1ccccc1 . Does its IC50 lie strictly below 200 µM?
Reply: False

Task item: Consider C#CCCCOC1O[C@H](COC(C)=O)[C@@H](OCc2ccccc2)[C@H](OCc2ccccc2)[C@H]1OCc1ccccc1 (stereo not given in full) . Does its IC50 lie strictly below 200 µM?
Reply: False

Task item: Consider CC#CCOC1O[C@H](COC(C)=O)[C@@H](OCc2ccccc2)[C@H](OCc2ccccc2)[C@H]1OCc1ccccc1 (stereo not given in full) . Does its IC50 lie strictly below 200 µM?
Reply: False
